Values were extracted from PubChem BioAssay (NCI).

Field: growth. Provide a value for each of the compounds that follow.
system: NCI-H322M lung; assay: NCI-60 one-dose screen, 48 h (100 = growth as untreated, 0 = no growth, -100 = all killed); conditions: 10 µM
About 83,000 compounds went through this panel and 20% of them were active in at least one assay; those are over-represented in the sample as a whole.
Answers are plain numbers, in %.

[[record]]
compound = "COc1ccc(/C=C2/CN(C(=O)c3ccccc3F)C/C(=C\\c3ccc(OC)cc3)C2=O)cc1"
unit_of_measurement = "%"
numeric_value = 82.9

[[record]]
compound = "COC(=O)C(C(C[N+](=O)[O-])c1ccccc1)=P(c1ccccc1)(c1ccccc1)c1ccccc1 (stereo not given)"
unit_of_measurement = "%"
numeric_value = 94.3

[[record]]
compound = "CN(C)CCN1C(=O)c2cccc3c(-c4ccc5ncn(C6CCCCC6)c5c4)ccc(c23)C1=O"
unit_of_measurement = "%"
numeric_value = 25.3

[[record]]
compound = "O=C(Nc1cccc(-n2cc(-c3ccncc3)c(-c3cc(O)cc(Cl)c3)n2)c1)c1cc(C(F)(F)F)cc(C(F)(F)F)c1"
unit_of_measurement = "%"
numeric_value = 74.1

[[record]]
compound = "Cc1ccc2oc3nc(C)c(C(=O)NCc4ccccc4)cc3c(=O)c2c1"
unit_of_measurement = "%"
numeric_value = 76.8


List growth for every entry below, keeping the order given.
1. Cc1occc1-c1nnc(SCC(=O)c2ccc(NC(=O)CC(C)C)cc2)o1
2. N=C(N)c1ccc(-c2ccc(-c3cccs3)s2)s1
3. CC(C)(C#N)Nc1ccccc1
4. c1ccc2c(c1)oc1c3c(ccc12)NCCC3

## Output
106
-29.8
124
91.8

## Input Fill blank: measured growth of the compound "CN(C)N=Nc1nn(C(=O)Nc2ccc(Cc3ccccc3)cc2)c2ccccc12" is ____.
## Output 81.3
